Taken from ChEMBL document CHEMBL1201862.

# System: UACC-257
# PROTOCOL_TEXT: NCI tumour cell line growth inhibition, 48 h
Active and inactive are the calls of the source. No stated cut-off is given here; in the data, active = GI50 up to about 1.1 µM and inactive = higher.
Result category, one only: active, inactive

Take a look at these entries with their results.
{"COMPOUND": "COc1ccc2c(c1)[n+]([O-])c(C(=O)C/C(=N/NC(=O)c1ccccc1O)C(=O)Nc1ccc(Cl)c(C(F)(F)F)c1)c(C)[n+]2[O-]", "TESTED_SYSTEM": "UACC-257", "CATEGORY": "inactive"}
{"COMPOUND": "CC(=O)c1nc2ccccc2n1C(C)C(=O)c1ccccc1 (centres undefined)", "TESTED_SYSTEM": "UACC-257", "CATEGORY": "inactive"}
{"COMPOUND": "O=C(NC(C(F)(F)F)(C(F)(F)F)P(=O)(Cc1ccccc1)Cc1ccccc1)C(C(F)(F)F)C(F)(F)F", "TESTED_SYSTEM": "UACC-257", "CATEGORY": "inactive"}

Query: For this compound, state the assay outcome: `O=C1c2cccnc2C(=O)c2c1nc1ccccc1c2-c1cncc(-c2c3c(nc4ccccc24)C(=O)c2cccnc2C3=O)c1`
Reply: active

Query: For this compound, state the assay outcome: `CC(C)c1nc2c(Cl)c3ncccc3cc2[nH]c1=O`
Reply: inactive

Query: For this compound, state the assay outcome: C=C1C(=O)C23C(CC(OC(C)=O)C1[C@@H]2OC(C)=O)C1(C)C(OC(C)=O)CCC(C)(C)C1C[C@@H]3OC(C)=O (some centres undefined)
Reply: inactive

Query: For this compound, state the assay outcome: `C/C(=N\NC1=NCCN1)c1cn(C2=NCCN2)nc1C`
Reply: inactive

---

# Test system: UACC-62
# PROTOCOL_TEXT: NCI tumour cell line growth inhibition, 48 h
Calls of active or inactive are those of the source. Rule as the data show it: active = GI50 up to about 1.1 µM and inactive = higher.
PROPERTY_LABEL: GI50

Completed entries (count: 5):
{"MOLECULE": "CC(C)=CC(=O)CC(=O)C(=O)Nc1ccc(Cl)c(Cl)c1", "TESTED_SYSTEM": "UACC-62", "VALUE_MEASURED": "> 100 µM (inactive)"}
{"MOLECULE": "O=c1/c(=C/c2ccccc2[N+](=O)[O-])sc2nnc(-c3cccnc3)n12", "TESTED_SYSTEM": "UACC-62", "VALUE_MEASURED": "> 100 µM (inactive)"}
{"MOLECULE": "O=C1C[C@@H](Sc2ccccc2)C2(OCCO2)[C@H]2ON3CCC[C@@H]3[C@@H]12", "TESTED_SYSTEM": "UACC-62", "VALUE_MEASURED": "10.9 µM (inactive)"}
{"MOLECULE": "Cc1ccc(/N=C2\\N=C(N3CC(C)OC(C)C3)c3ccccc32)cc1 (stereo unspecified)", "TESTED_SYSTEM": "UACC-62", "VALUE_MEASURED": "29.6 µM (inactive)"}
{"MOLECULE": "CCOc1ccc(/N=C/C=C(\\Cl)c2ccc3ccccc3c2)cc1", "TESTED_SYSTEM": "UACC-62", "VALUE_MEASURED": "15.8 µM (inactive)"}

Query: For the molecule O=C1CSC(c2cc3cc(Br)ccc3nc2Cl)N1c1ccc(F)c(Cl)c1 (stereo unspecified) , give its measured GI50 value.
Reply: > 50 µM (inactive)

Query: For the molecule CCOC(=O)C(=O)CC(=O)C(Br)C(Br)c1ccc(Cl)cc1 (stereo unspecified) , give its measured GI50 value.
Reply: 46 µM (inactive)

Query: For the molecule `C[N+](C)(C)CCOP(=O)([O-])OCCNC(=O)c1ccc2ccccc2c1` , give its measured GI50 value.
Reply: > 100 µM (inactive)

---

# Test system: RXF 393
# PROTOCOL_TEXT: NCI tumour cell line growth inhibition, 48 h
Activity calls are given as the source filed them. No stated cut-off is given here; in the data, active = GI50 up to about 1.1 µM and inactive = higher.
Result category, one only: active, inactive

{"COMPOUND": "C#CCn1c(=O)c(C)cn(/C(=C/C(=O)OCC)C(=O)OCC)c1=O", "CATEGORY": "active"}
{"COMPOUND": "O=C(Oc1c(Cl)cc(C2(c3cc(Cl)c(OC(=O)c4ccccc4)c(Cl)c3)CCCCC2)cc1Cl)c1ccccc1", "CATEGORY": "inactive"}
{"COMPOUND": "CCCCCCCCCCCCC(Br)C(=O)SCCNC(=O)CCNC(=O)[C@@H](O)C(C)(C)COP(=O)(O)OP(=O)(O)OCC1OC(n2cnc3c(N)ncnc32)C(O)C1OP(=O)(O)O (some centres undefined)", "CATEGORY": "inactive"}

--- query ---
Query: For this compound, state the assay outcome: Cc1cnc(Cl)nc1C(C#N)c1nc2ccccc2n1C (centres undefined)
Reply: inactive

---

GI50 reference
# Test system: RXF 393
# PROTOCOL_TEXT: NCI tumour cell line growth inhibition, 48 h
Active and inactive are the calls of the source. Rule as the data show it: active = GI50 up to about 1.1 µM and inactive = higher.

Query: For the compound `Nn1c(S)nnc1C12CC3CC(CC(C3)C1)C2` , give its measured GI50 value.
Reply: > 100 µM (inactive)

Query: For the compound CS(=O)(=O)OCC1CCCCCCCCCCC12SCCCS2 (stereo unspecified) , give its measured GI50 value.
Reply: > 100 µM (inactive)

Query: For the compound `COc1cc(/C=C2\N=C(c3ccccc3)N(c3nc4ccc(Sc5ccccc5)cc4[nH]3)C2=O)ccc1O` , give its measured GI50 value.
Reply: 28.5 µM (inactive)

Query: For the compound `CCCCSc1nsc(N(C(=O)c2ccccc2)C(=O)c2ccccc2)n1` , give its measured GI50 value.
Reply: 32.3 µM (inactive)

Query: For the compound `Clc1ccc(-c2cc(-c3cc4cc(Br)ccc4nc3Cl)on2)cc1` , give its measured GI50 value.
Reply: 15.4 µM (inactive)

Query: For the compound `O=Cc1cn(CCCCCCCCCCCCn2cc(C=O)c3ccccc32)c2ccccc12` , give its measured GI50 value.
Reply: > 100 µM (inactive)

Query: For the compound CC(O)c1cc2c(s1)C(=O)c1ccsc1C2=O (stereo unspecified) , give its measured GI50 value.
Reply: 0.213 µM (active)

Query: For the compound `CN(C)c1nncc2[nH]cnc12` , give its measured GI50 value.
Reply: > 100 µM (inactive)

Query: For the compound `CCc1c(C)[nH]c2c1/C(=N/N=C1\CCCc3[nH]c(C)c(CC)c31)CCC2` , give its measured GI50 value.
Reply: 22.6 µM (inactive)

Query: For the compound `COc1cc(Oc2nc3ccc(C(F)(F)F)cc3nc2-c2ccccc2)cc(OC)c1OC` , give its measured GI50 value.
Reply: 11 µM (inactive)

Query: For the compound `ClC1=NSSC1(Cl)Cl` , give its measured GI50 value.
Reply: 46.1 µM (inactive)

---

In what follows, each item is paired with its GI50 for HCT-15.

Query: Specify GI50 for O=C(O)C(/C=C/c1ccccc1)c1ccccc1 (stereo not given) , system HCT-15.
Reply: > 100 µM

Query: Specify GI50 for `CCOC(=O)NC(=O)c1cn(CCN2CCN(C(=O)CNC(=O)CNC(=O)Cn3cc(C(=O)NC(=O)OCC)c(=O)[nH]c3=O)CC2)c(=O)[nH]c1=O` , system HCT-15.
Reply: > 100 µM

Query: Specify GI50 for `Cc1cc2cc3c(O)nc(O)nc3nc2cc1C` , system HCT-15.
Reply: > 100 µM

Query: Specify GI50 for COC(=O)C1=NN2c3ccccc3C(=O)OCCC2(C)C1 (stereo not given) , system HCT-15.
Reply: > 100 µM

Query: Specify GI50 for `COc1cc2c(cc1OCCCN1C(=O)c3cccc4cccc(c34)C1=O)N=C[C@@H]1CCCN1C2=O` , system HCT-15.
Reply: 23.1 µM

---

# Test system: HOP-62
# PROTOCOL_TEXT: NCI tumour cell line growth inhibition, 48 h
Calls of active or inactive are those of the source. Cut-off read from the data, not from the text of the source: active = GI50 up to about 1.1 µM and inactive = higher.
GI50 reference

Completed entries (count: 5):
{"COMPOUND": "C#CCn1c(=O)c(C)cn(/C(=C/C(=O)OCC)C(=O)OCC)c1=O", "TESTED_SYSTEM": "HOP-62", "VALUE_MEASURED": "15.8 µM (inactive)"}
{"COMPOUND": "Cc1ccc(OCC2=NN3C(=O)/C(=C\\c4ccc([N+](=O)[O-])o4)SC3N2)cc1 (stereo unspecified)", "TESTED_SYSTEM": "HOP-62", "VALUE_MEASURED": "16.6 µM (inactive)"}
{"COMPOUND": "C[C@H](CCC(=O)O)[C@H]1CC[C@H]2[C@@H]3CC[C@@H]4C[C@H](O)CC[C@]4(C)[C@H]3C[C@H](O)[C@]12C [DEOXYCHOLIC ACID]", "TESTED_SYSTEM": "HOP-62", "VALUE_MEASURED": "26.4 µM (inactive)"}
{"COMPOUND": "CC1(C)C/C=C\\CCC(O)C(O)CCC(C)(C)C1=O (stereo unspecified)", "TESTED_SYSTEM": "HOP-62", "VALUE_MEASURED": "> 100 µM (inactive)"}
{"COMPOUND": "Cn1c(=O)c2c(nc3n2CCC(=O)N3)n(C)c1=O", "TESTED_SYSTEM": "HOP-62", "VALUE_MEASURED": "> 100 µM (inactive)"}

Now for another entry.
Query: For the compound `Cn1ncc2c(Nc3ccc(Cl)cc3)c3ccccc3nc21` , give its measured GI50 value.
Reply: 16.4 µM (inactive)
